Tested on: PfAP2-LT AP2 domain (GST-tagged)
Assay: gcPBM binding intensity (ln(normalized median fluorescence intensity)); higher = stronger DNA binding
Over roughly 25,000 sequences, “ln(normalized median fluorescence intensity)” has its median near 8.9; the highest 2% begin near 10. Many of the other results were omitted from the sample, so the highest values are more common in it than they were.
Collected gcPBM binding intensity (ln) values appear next to each entry.
Lab note: record just the number, no unit beside it.

Observe how each entry below is paired with its result.
| Biopolymer Sequence | gcPBM binding intensity (ln) |
| --- | --- |
| AAAAGATAATTATGCACACACACACCCCCACCCAAC [CACACA_site2570] | 10.4 |
| TATTGCCCTGGACACACACACATATATATATATATA [CACACA_site5389] | 10.2 |
| AAATCTTAATAAAGTTGTACATAATTATGTTTAATA [XGTACX_site3348] | 8.55 |
| CACAGACACGGACACACACACATATATAATATATAT [CACACA_site4495] | 9.87 |
| TATTGCCCTTGACACACACACATATAAATAAATATA [CACACA_site7220] | 9.34 |

**Query** Query: gcPBM binding intensity (ln); subject: AAAAGATAAAATTATGCACACATACGAATAATTTTA [CACACA_site8497]
**Result** 8.92

**Query** Query: gcPBM binding intensity (ln); subject: TAATATACATAATAATGTACATATTTTCATATATAC [XGTACX_site6913]
**Result** 8.74

**Query** Query: gcPBM binding intensity (ln); subject: TTTGTTGACGGACACACACACATACAGATATATATA [CACACA_site5292]
**Result** 9.4

**Query** Query: gcPBM binding intensity (ln); subject: CCCACAGACGGACACACACACATATATATATATATA [CACACA_site4351]
**Result** 10.4

**Query** Query: gcPBM binding intensity (ln); subject: AGCACAGACGGACACACACACATATATATATATATA [CACACA_site4341]
**Result** 10.4

**Query** Query: gcPBM binding intensity (ln); subject: GATGATACAAAGTAATGTACATAAATACACATATTG [XGTACX_site3177]
**Result** 9.03

**Query** Query: gcPBM binding intensity (ln); subject: CAATGTTGTACATACACACACACAAAAAAAAAATAA [CACACA_site2407]
**Result** 9.6

**Query** Query: gcPBM binding intensity (ln); subject: GAACCTTTAAAATACACACCCAAATCCTTTGAAATA [CACACA_site3630]
**Result** 8.88

**Query** Query: gcPBM binding intensity (ln); subject: AACAATATATTGATATTATTTTAAGTGATTATATAT [XGTACX_negctrl_site205]
**Result** 8.57

**Query** Query: gcPBM binding intensity (ln); subject: TATATATAATATTTTTCACACACCATTTCCTTAAAC [CACACA_site1341]
**Result** 9.04

**Query** Query: gcPBM binding intensity (ln); subject: AAAAGATAATTATGCACACACACACCCAGACACAAC [CACACA_site5428]
**Result** 10.3

**Query** Query: gcPBM binding intensity (ln); subject: ATTATATATATGTGCACACAAAAGATATATATATAT [CACACA_site5205]
**Result** 9.95

**Query** Query: gcPBM binding intensity (ln); subject: TATGCACCCAGACACACACACACAACTAAAAAATAA [CACACA_site2567]
**Result** 9.8

**Query** Query: gcPBM binding intensity (ln); subject: ATATTTTGTATAATCACACACACTATTCTTAAATAG [CACACA_site7270]
**Result** 9.23

**Query** Query: gcPBM binding intensity (ln); subject: TAATTATGCAGACACACACACACACCCAACTAAAAA [CACACA_site2569]
**Result** 9.96

----------
System: PfAP2-LT AP2 domain (GST-tagged)
Test: gcPBM binding intensity (ln(normalized median fluorescence intensity)); higher = stronger DNA binding
In all, about 25,000 sequences were measured (“ln(normalized median fluorescence intensity)”: median about 8.9, highest 2% from about 10 on). Many of the other results were omitted from the sample, so the highest values are more common in it than they were.
Binary call on gcPBM binding intensity (ln): true from 9 upward, false beneath that.

**Query** Quick check: does AAGAACAGAACGTACACACACATATATATATATATA [CACACA_site3457] have gcPBM binding intensity (ln) greater than or equal to 9?
**Result** true

**Query** Quick check: does TTTTTAGAAAAGGTTATAAAAAATTAATTGAAAAAA [GTGCAC_negctrl_site289] have gcPBM binding intensity (ln) greater than or equal to 9?
**Result** false

**Query** Quick check: does ACAAGAACAGAACGTACACACACATATATATATATA [CACACA_site9143] have gcPBM binding intensity (ln) greater than or equal to 9?
**Result** true

**Query** Quick check: does ATATTAAGGTTTATATTTTAACTTATTATTTTATTC [CACACA_negctrl_site795] have gcPBM binding intensity (ln) greater than or equal to 9?
**Result** false

**Query** Quick check: does ATACAATAAAGGTGTACACATATATGATGCAAGATG [CACACA_site5897] have gcPBM binding intensity (ln) greater than or equal to 9?
**Result** true

----------
Collected gcPBM binding intensity (ln) values appear next to each entry.
Tested on: PfAP2-LT AP2 domain (GST-tagged)
Test: gcPBM binding intensity (ln(normalized median fluorescence intensity)); higher = stronger DNA binding
Whole data set: some 25,000 sequences, median “ln(normalized median fluorescence intensity)” near 8.9, cut for the highest 2% near 10. For the sample, the highest values were picked, then their nearest neighbours and some sequences at random.
Lab note: record just the number, no unit beside it.

| Biopolymer Sequence | gcPBM binding intensity (ln) |
| --- | --- |
| AATAATTGTTAAAGCTGTACAATACTTATATAAGAA [XGTACX_site5729] | 8.77 |

Okay, now this sequence:
**Query** Query: gcPBM binding intensity (ln); subject: TGGGAATAAAAACACACACACACACCGATATATATA [CACACA_site5875]
**Result** 10.1

----------
Collected gcPBM binding intensity (ln) values appear next to each entry.
Test system: PfAP2-LT AP2 domain (GST-tagged)
Test: gcPBM binding intensity (ln(normalized median fluorescence intensity)); higher = stronger DNA binding
The full ranking holds about 25,000 sequences; the median of “ln(normalized median fluorescence intensity)” is about 8.9, and the highest 2% start at about 10. The sample holds the highest values, similar sequences and a random draw of the others, so the mix is not that of the screen.
Lab note: record just the number, no unit beside it.

Observe how each entry below is paired with its result.
| Biopolymer Sequence | gcPBM binding intensity (ln) |
| --- | --- |
| AAAAAAAAAAAAAACACACACATATATATAATATAT [CACACA_site3172] | 9.37 |
| AAAAAAAAAAAACACACACACATATATATATATATA [CACACA_site732] | 10.4 |
| AAAAAAAAAAAAAACACACATACATACATACATATA [CACACA_site4121] | 9.13 |
| AAAAAAAAAAAAAAAACACACACATATATATAATAT [CACACA_site9038] | 9.3 |

**Query** Query: gcPBM binding intensity (ln); subject: AAAAAAAAAAAACATACACACATACATACATATATA [CACACA_site8222]
**Result** 9.26

----------
Tested on: PfAP2-LT AP2 domain (GST-tagged)
Assay: gcPBM binding intensity (ln(normalized median fluorescence intensity)); higher = stronger DNA binding
In all, about 25,000 sequences were measured (“ln(normalized median fluorescence intensity)”: median about 8.9, highest 2% from about 10 on). This is one part of a sample in which the highest values are shown more often than they occur.
Collected gcPBM binding intensity (ln) values appear next to each entry.
Lab note: record just the number, no unit beside it.

Observe how each entry below is paired with its result.
| Biopolymer Sequence | Reported |
| --- | --- |
| TATAAATATACAAAGGTGCATAAAAAGTTATGTTTT [GTGCAC_site9832] | 8.72 |
| GAATATTAAACAAACACACACACATATATTTATATA [CACACA_site7563] | 9.73 |
| GTTTATATTAAACAAACACACACATATATATATATA [CACACA_site8749] | 9.57 |
| TTATATTAAACAAACACACACATATATATATATATA [CACACA_site2382] | 9.54 |

Okay, now this sequence:
**Query** Query: gcPBM binding intensity (ln); subject: GAATATTAAACAAACACACACACATATATATATATA [CACACA_site3382]
**Result** 10.1

The values you see were collected from the supplement of paper PMC11417369.
